Target: T1, human CD20 antigen (human, UniProt P11836 1-297)
T1 sequence (looked up): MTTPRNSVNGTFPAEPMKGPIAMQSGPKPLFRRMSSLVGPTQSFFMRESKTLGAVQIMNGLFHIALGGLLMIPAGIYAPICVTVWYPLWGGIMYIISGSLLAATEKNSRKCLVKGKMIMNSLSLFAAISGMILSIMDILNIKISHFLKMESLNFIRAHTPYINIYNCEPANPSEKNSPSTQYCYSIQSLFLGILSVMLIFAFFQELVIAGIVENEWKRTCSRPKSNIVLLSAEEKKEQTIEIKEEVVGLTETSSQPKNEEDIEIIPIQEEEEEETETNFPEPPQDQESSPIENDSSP
Experiment: cell-based or functional assay
The reader will find reported CDC (10 ug/ml), RC-K8 values listed item by item below.

Example entries and their recorded answers appear below.
humanized 1K1791 antibody fv (FraL x VenH) (antibody, V domains shown, Kappa, gamma 1 construct; also called hz1791 fv; Fv010) VH: QIQLVQSGPELKKPGASVKISCKASGYTFTNFGVNWVKQAPGKGLKWMGWINTYTGEPSYADDFKGRFAFSLDASVSTAYLQISSLKAEDTSTYFCTRRTNYYGTSYYYAMDYWGQGTTVTVSS VL: STVMTQSPSFLSASVGDRVTITCKASQSVSNDVAWYQQKPGQSPKVLIYFASNRYTGVPDRFSGSGYGTDFTLTISSLQAEDVAVYFCQQDYSSPLTFGAGTKLEIK :: 498 relative, c2B8 = 100
humanized 1K1791 antibody ss (SdrL x SdrH) (antibody, V domains shown, Kappa, gamma 1 construct; also called hz1791 ss; Ss020) VH: QIQLVQSGSELKKPGASVKVSCKASGYTFTNFGVNWVRQAPGKGLKWMGWINTYTGEPSYAQGFTGRFAFSLDASVSTAYLQISSLKAEDTATYFCTRRTNYYGTSYYYAMDYWGQGTTVTVSS VL: STVMTQSPDSLAVSLGERATINCKSSQSNSNDVAWYQQKPGQSPKVLIYFASNRYSGVPDRFSGSGYGTDFTLTISSLQAEDVAVYFCQQDYSSPLTFGAGTKLEIK :: 108 relative, c2B8 = 100
chimerized 1K1791 antibody (c1791) (antibody, V domains shown) VH: QIQLVQSGPELKKPGETVKISCKASGYTFTNFGVNWVKQAPGKGLKWMGWINTYTGEPSYADDFKGRFAFSLEASANTAYLQINNLKNDDMSTYFCTRRTNYYGTSYYYAMDYWGQGTSVTVSS VL: STVMTQTPKFLLVSAGDRVTITCKASQSVSNDVAWYQQKPGQSPKVLIYFASNRYTGVPDRFTGSGYGTDFTFTINTVQAEDLAVYFCQQDYSSPLTFGAGTKLELK :: 100 relative, c2B8 = 100

What value of CDC (10 ug/ml), RC-K8 has been recorded for this entry: humanized 1K1791 antibody sf (SdrL x FraH) (antibody, V domains shown, Kappa, gamma 1 construct; also called hz1791 sf; Sf043) VH: QIQLVQSGSELKKPGASVKVSCKASGYTFTNFGVNWVKQAPGKGLKWMGWINTYTGEPSYADDFKGRFAFSLDASASTAYLQISSLKAEDMATYFCTRRTNYYGTSYYYAMDYWGQGTTVTVSS VL: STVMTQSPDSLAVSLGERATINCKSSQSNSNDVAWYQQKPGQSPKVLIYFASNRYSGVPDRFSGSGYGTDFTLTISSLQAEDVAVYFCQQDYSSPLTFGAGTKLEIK
713 relative, c2B8 = 100
